Data provenance is BigSolDB 2.1.

# conditionInfo: in n-butanol, 281.15 K
assayMetric: solubility (mole fraction)
I only need the number, thanks.

Tell me the measured solubility (mole fraction) of Cc1ccc(C)c(O)c1 , please.
0.308

====

# conditionInfo: in ethyl acetate, 314.75 K
assayMetric: solubility (mole fraction)

Item under review: Cc1ccc(C)c(O)c1 . Reported solubility (mole fraction)?
0.596

====

# conditionInfo: in n-butanol, 331.2 K
assayMetric: solubility (mole fraction)
Enter the number alone.

Return reported solubility (mole fraction); argument: Cc1ccc(C)c(O)c1
0.706
